- Target Or System: T1, recombinant human IL-23 (hrIL-23), produced at Centocor (human, UniProt P29460 23-328)
- T1 construct: p19-p40 heterodimer; also called rhIL-23; huIL-23
- T1 sequence 1: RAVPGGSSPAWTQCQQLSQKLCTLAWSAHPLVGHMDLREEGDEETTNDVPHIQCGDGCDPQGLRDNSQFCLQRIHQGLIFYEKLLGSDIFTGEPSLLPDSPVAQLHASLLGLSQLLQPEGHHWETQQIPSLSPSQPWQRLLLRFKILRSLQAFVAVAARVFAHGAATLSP
- T1 sequence 2: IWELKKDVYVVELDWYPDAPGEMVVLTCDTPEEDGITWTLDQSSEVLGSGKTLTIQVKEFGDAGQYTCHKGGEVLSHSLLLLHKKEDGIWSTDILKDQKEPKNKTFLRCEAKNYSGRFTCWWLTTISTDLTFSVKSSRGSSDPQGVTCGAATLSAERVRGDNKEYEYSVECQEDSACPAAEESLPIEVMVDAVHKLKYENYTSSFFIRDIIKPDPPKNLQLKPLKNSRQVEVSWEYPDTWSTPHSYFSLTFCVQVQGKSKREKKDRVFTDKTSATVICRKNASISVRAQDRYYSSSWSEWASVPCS
- Procedure Summary: IL-23/IL-23R competition assay
Measure: IC50 (pM)

Binder	Readout Value
MOR05062 Fab (Fab, V domains shown, Fab) VH: QVQLVESGGGLVQPGGSLRLSCAASGFTFSSFGMSWVRQAPGKGLEWVSNISSSGSSTYYADSVKGRFTISRDNSKNTLYLQMNSLRAEDTAVYYCARYWGTPYLMQFDNWGQGTLVTVSS VL: DIALTQPASVSGSPGQSITISCTGTSSDVGGYNSVSWYQQHPGKAPKLMIYSVSSRPSGVSNRFSGSKSGNTASLTISGLQAEDEADYYCQTYYFSYSGPVFGGGTKLTVL	1340
MOR05056 Fab (Fab, V domains shown, Fab) VH: QVQLVESGGGLVQPGGSLRLSCAASGFTFSSFGMSWVRQAPGKGLEWVSSIEHKYLSYATYYAAGVKGRFTISRDNSKNTLYLQMNSLRAEDTAVYYCARYWGTPYLMQFDNWGQGTLVTVSS VL: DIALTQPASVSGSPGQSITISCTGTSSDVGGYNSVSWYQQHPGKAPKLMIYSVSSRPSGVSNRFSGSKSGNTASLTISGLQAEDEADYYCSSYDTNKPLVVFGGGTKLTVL	520
